Each recorded value in this set is attributed to the supplement of paper PMC9170038.

System: MS2 coat protein
Assay: apparent KD of MS2 coat protein; designed switch direction (-1 OFF switch, 1 ON switch): -1; higher = weaker reporter binding
Settings: input ligand: FMN 200 uM
METRIC_NAME: apparent KD of MS2 coat protein (µM)
Express it in µM; write the number only.

Reference set (4 entries):
QUERY: Name the recorded apparent KD of MS2 coat protein for AACGAUACGCUCAUAAGAACAUGAGGAUCACCCAUGUGUGGUGAGGAUAUCCACCCAGAGGGAAAGGAGAAGGUACCAGUGGAC [Orsoenbere] (Eterna round: R96, puzzle: Exclusion NG 3) .
RESULT: 0.222

QUERY: What value of apparent KD of MS2 coat protein has been reported for the following sequence? UUUCCCGUUCAGGCUGGAAACAUGAGGAUCACCCAUGUUCAAUCGGUUCUGUUAGCUGCUCGUCUUUUACACUUUCC [Eternabot (L1) Solution 39] (Eterna round: R97, puzzle: Sensor, turn-off variant 1)
RESULT: 0.0205

QUERY: Quick one: apparent KD of MS2 coat protein for UUAAUUAAUUAAGCGCAAGAUCACAUGAGGAUCACCCAUGUAUAGGAUAUCAGCUCGUGUAGAGCUGAGAAGGAUACAUAGCGC [ExNG3/2-A3] (Eterna round: R96, puzzle: Exclusion NG 3) ?
RESULT: 1.03

QUERY: Can you look up the measured apparent KD of MS2 coat protein of GGAAAAGCAGGAUAUACAUGAGGAUCACCCAUGUAGGCUCGCCGAGACGUGGAUGGACGUAGAAGGGCUAUUCC [Eternabot (L1) Solution 65] (Eterna round: R97, puzzle: Exclusion 3) for me?
RESULT: 0.121

With those in mind, consider the next sequence.
QUERY: Which apparent KD of MS2 coat protein is reported for this sequence? UGAUCUAGCGGAGGAUAUACAUGAGGAUCACCCAUGUAGAUGAGUGUACCGUAGUGCACUCUUGUGUAGAAGGCCGCUAGAUCU [JL ENG2 3.56] (Eterna round: R96, puzzle: Exclusion NG 2)
RESULT: 0.0248
